# System: Acinetobacter baumanii/haemolyticus: Multidrug-resistant clinical isolate (AB-3167)
# procedure-text: MIC determination (CLSI), AB-3167
# Assay type: cell-based
# test-settings: Acinetobacter baumanii/haemolyticus multidrug-resistant clinical isolate AB-3167
value-type: AB-3167 MIC

Example entries begin here.
In [3]: df
Out[3]:
                                   molecule  observed_result
0  CC(=O)c1ccc(-c2ccc(CC[C@](C)(C(=O)NO)S(C)(=O)=O)cc2)cn1         ≧64 mg/L
1  CC(CCc1ccc(-c2cccc(CO)c2)cc1)(C(=O)NO)S(C)(=O)=O (racemic)         ≧64 mg/L
2  CC(CCc1ccc(-c2ccc(OCCO)c(F)c2)cc1)(C(=O)NO)S(C)(=O)=O (stereo not drawn)         ≧64 mg/L
3  Cc1nc(-c2ccc(CCC(C)(C(=O)NO)S(C)(=O)=O)cc2)ccc1C#N (stereo not drawn)         ≧64 mg/L
4  CC(CCc1ccc(-c2ccc(CCN)cc2)cc1)(C(=O)NO)S(C)(=O)=O (stereo not drawn)         ≧64 mg/L
5  CC(CCc1ccc(-c2ccc3c(c2)C(=O)NC3)cc1F)(C(=O)NO)S(C)(=O)=O (stereo not drawn)         ≧64 mg/L

What AB-3167 MIC appears in the records for this molecule with Acinetobacter baumanii/haemolyticus: Multidrug-resistant clinical isolate (AB-3167)? `C[C@@](CCc1ccc(-c2ccc(OCCN3CCOCC3)cc2)cc1)(C(=O)NO)S(C)(=O)=O`
≧64 mg/L

What AB-3167 MIC appears in the records for this molecule with Acinetobacter baumanii/haemolyticus: Multidrug-resistant clinical isolate (AB-3167)? CC(CCc1ccc(-c2ccc(O)c(F)c2)cc1)(C(=O)NO)S(C)(=O)=O (stereo not drawn)
32 µg/mL

----------
# System: Klebsiella pneumoniae: Ciprofloxacin-resistant isolate, ESBL, clinical isolate (KP-3700)
# procedure-text: MIC determination (CLSI), KP-3700
# Assay type: cell-based
# Procedure: The in vitro antibacterial activity of compounds described in the Examples was evaluated by minimum inhibitory concentration (MIC) testing according to Clinical and Laboratory Standards Institute (CLSI, formerly NCCLS) guidelines. See: Clinical and Laboratory Standards Institute. Methods for Dilution Antimicrobial Susceptibility Tests for Bacteria that Grow Aerobically; Approved Standard-Seventh Edition. CLSI document M7-A7 [ISBN 1-56238-587-9]. […]
Decide using KP-3700 MIC: a value greater than or equal to 20 µg/mL is fulfilled, a smaller one is not fulfilled.

These recorded examples may help you get a feel for the data.
>>> df
                                   compound          group
0  CC(CCc1ccc(-n2cc3ccccc3n2)cc1)(C(=O)NO)S(C)(=O)=O (racemic) [Example 22]  not fulfilled
1  CC(CCc1ccc(-c2ccc(C#N)c(C#N)c2)cc1)(C(=O)NO)S(C)(=O)=O (stereo not drawn) [Example 125]      fulfilled
2  CC(C)Cc1ccc(-c2ccc(CCC(C)(C(=O)NO)S(C)(=O)=O)cc2)cc1 (stereo not drawn) [Example 63]  not fulfilled
3  CC(CCc1ccc(-c2cccc(F)c2)cc1)(C(=O)NO)S(C)(=O)=O (stereo not drawn) [Example 42]  not fulfilled
4  CC(CCc1ccc(OCCCC2CCCCC2)cc1)(C(=O)NO)S(C)(=O)=O (stereo not drawn) [Example 315]  not fulfilled

Entry CC(=O)c1ccc(-c2ccc(CCC(C)(C(=O)NO)S(C)(=O)=O)c(F)c2)nc1 (stereo not drawn) [Example 187] : is its KP-3700 MIC no less than 20 µg/mL?
not fulfilled

Entry CC(CCc1ccc(OCc2ccccc2F)cc1)(C(=O)NO)S(C)(=O)=O (stereo not drawn) [Example 242] : is its KP-3700 MIC no less than 20 µg/mL?
not fulfilled
